# TEST PROTOCOL: Inhibition of starfish Cdk1/cycB expressed in baculovirus at pH 8.0 measured after 30 mins in presence of gamma-[33P]-ATP by scintillation counter analysis
# Set-up: species or system Asteroidea
MEASURED PROPERTY: IC50

Quick check: IC50 of Nc1ncnc2c1c(-c1cccc(OCc3ccccc3)c1)cn2[C@H]1C[C@@H](CN2CCC2)C1 ?
> 10 µM

----------
# MEASURED TARGET: Mast/stem cell growth factor receptor Kit (Homo sapiens)
# Sequence (P10721 whole entry): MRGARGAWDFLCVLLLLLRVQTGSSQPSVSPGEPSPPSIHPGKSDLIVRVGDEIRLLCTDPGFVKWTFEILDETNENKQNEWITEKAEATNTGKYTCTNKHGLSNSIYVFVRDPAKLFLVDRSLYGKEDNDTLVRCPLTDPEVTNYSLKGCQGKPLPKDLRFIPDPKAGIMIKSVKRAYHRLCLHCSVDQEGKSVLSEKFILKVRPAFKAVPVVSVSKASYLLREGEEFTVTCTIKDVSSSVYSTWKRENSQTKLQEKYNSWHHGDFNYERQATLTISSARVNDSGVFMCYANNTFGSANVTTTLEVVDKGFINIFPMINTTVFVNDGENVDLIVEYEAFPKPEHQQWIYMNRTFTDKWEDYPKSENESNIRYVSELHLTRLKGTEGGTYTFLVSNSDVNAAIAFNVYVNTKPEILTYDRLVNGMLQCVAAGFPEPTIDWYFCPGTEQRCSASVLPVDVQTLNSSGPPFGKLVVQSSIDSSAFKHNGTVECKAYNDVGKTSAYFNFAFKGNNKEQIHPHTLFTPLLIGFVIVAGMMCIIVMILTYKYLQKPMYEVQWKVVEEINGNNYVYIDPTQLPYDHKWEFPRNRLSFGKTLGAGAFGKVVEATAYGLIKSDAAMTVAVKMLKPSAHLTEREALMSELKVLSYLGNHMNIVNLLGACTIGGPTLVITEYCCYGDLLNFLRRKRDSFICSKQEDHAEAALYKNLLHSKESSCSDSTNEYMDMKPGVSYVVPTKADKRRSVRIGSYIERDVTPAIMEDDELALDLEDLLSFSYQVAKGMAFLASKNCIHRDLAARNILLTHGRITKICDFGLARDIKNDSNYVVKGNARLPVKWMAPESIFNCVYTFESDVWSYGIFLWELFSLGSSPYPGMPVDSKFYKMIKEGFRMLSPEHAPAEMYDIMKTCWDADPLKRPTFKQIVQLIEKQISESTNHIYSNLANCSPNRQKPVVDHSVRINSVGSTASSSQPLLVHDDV
# TEST PROTOCOL: Inhibition of GST tagged c-Kit (unknown origin) expressed in baculovirus at pH 7.6 measured after 10 to 30 mins in presence of gamma-[33P]-ATP by scintillation counter analysis
MEASURED PROPERTY: pIC50
Entry type: numeric. Quantity: pIC50, the -log10 of concentration in molar units.

Quick check: pIC50 of Nc1ncnc2c1c(-c1cccc(OCc3ccccc3)c1)cn2[C@H]1C[C@@H](CN2CCC2)C1 ?
5.48
